Exercise: for every item that follows, state its recorded EC50, CRE-luciferase assay.
- SYSTEM_TESTED: T1, human amylin receptor (AMY3) on CHO-K1/Ga15/AMY3 cells (human, UniProt P30988 25-474; O60896 24-148)
- T1 sequence (looked up) 1: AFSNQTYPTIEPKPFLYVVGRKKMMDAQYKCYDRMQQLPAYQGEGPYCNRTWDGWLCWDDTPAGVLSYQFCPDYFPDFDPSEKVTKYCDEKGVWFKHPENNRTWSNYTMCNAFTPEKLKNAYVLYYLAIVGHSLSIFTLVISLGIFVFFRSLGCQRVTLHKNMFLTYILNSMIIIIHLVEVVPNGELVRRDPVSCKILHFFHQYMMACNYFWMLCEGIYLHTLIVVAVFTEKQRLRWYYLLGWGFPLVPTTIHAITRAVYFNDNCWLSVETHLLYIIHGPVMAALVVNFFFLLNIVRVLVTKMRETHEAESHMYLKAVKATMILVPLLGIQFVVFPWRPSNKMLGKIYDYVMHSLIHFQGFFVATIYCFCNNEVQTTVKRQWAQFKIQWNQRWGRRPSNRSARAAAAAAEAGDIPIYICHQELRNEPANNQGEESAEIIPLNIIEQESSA
- T1 sequence (looked up) 2: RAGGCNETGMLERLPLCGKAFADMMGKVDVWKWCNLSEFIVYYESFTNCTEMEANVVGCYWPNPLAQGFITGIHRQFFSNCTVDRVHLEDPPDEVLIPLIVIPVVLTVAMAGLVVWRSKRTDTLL
- ASSAY_EXPLANATION: cell-based or functional assay
*1 amine or outer side, *2 acyl side, *3 side chain or, on linkers, in order; H or OH if unused. Bridges are numbered along the chain shown (N, C = ends). Primed or numbered codes have the meaning given here. Where no end group is shown, it is not given here. Side-chain parts run from the residue outwards. [ ]: non-standard residue; d: D form. The star is where a group is joined. C20 diacid = O=C(O)CCCCCCCCCCCCCCCCCCC(=O)*; C18 diacid = O=C(O)CCCCCCCCCCCCCCCCC(=O)*; γGlu = O=C(O)[C@H](CCC(=O)[*:2])N[*:1]; Hyp = O=C(O)[C@@H]1C[C@@H](O)CN1; hArg = N=C(N)NCCCC[C@H](N)C(=O)O; Dab = NCC[C@H](N)C(=O)O; Inp′ = not defined here; Trx′ = not defined here; Dap = NC[C@H](N)C(=O)O; AEEA = NCCOCCOCC(=O)O
Numbers only, in nM.

These solved cases illustrate the format of a correct answer.
[Dap]CNTATCATQRLADFLRHSSNNLK([γGlu-C20 diacid])PILPPTNVGSNT[Hyp]-NH2 (disulfide 2-7 (inferred)) [PD073] = 0.063
[Dab]CNTATCATQRLADFLRHSSNNLK([γGlu-C20 diacid])PILPPTNVGSNT[Hyp]-NH2 (disulfide 2-7 (inferred)) [PD074] = 0.066
RCNTATCATQRLADFLRHSSK([AEEA-AEEA-γGlu-C20 diacid])NLGPILPPTNVGSNT[Hyp]-NH2 (disulfide 2-7 (inferred)) [PD091] = 0.03
{C20 diacid-γGlu}-KCNTATCATQRLADFLRHSSNNLKPILPPTNVGSNT[Hyp]-NH2 (disulfide 2-7 (inferred)) [PD071] = 0.028
RCNTATCATQRLADFLRHSSNNLK([AEEA-AEEA-γGlu-C18 diacid])PILPPTNVGSNT[Hyp]-NH2 (disulfide 2-7 (inferred)) [PD109] = 0.01

Provide reported EC50, CRE-luciferase assay for each item, in the same order as listed.
1. {C20 diacid-Trx′-AEEA-AEEA}-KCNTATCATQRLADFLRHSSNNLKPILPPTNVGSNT[Hyp]-NH2 (disulfide 2-7 (inferred); reading uncertain) [PD177]
2. [hArg]CNTATCATQRLADFLRHSSNNLK([γGlu-C20 diacid])PILPPTNVGSNT[Hyp]-NH2 (disulfide 2-7 (inferred)) [PD077]
3. RCNTATCATQRLAEFLRHSSNNLK([γGlu-C20 diacid])PILPPTNVGSNT[3‑Am‑Pro]-NH2 (disulfide 2-7 (inferred)) [PD061]
4. CNTATCATQRLAEFLRHSSNNLK([γGlu-C20 diacid])PILPPTNVGSNTX-NH2 (disulfide 1-6 (inferred); not fully specified (residue 36); printed as CNTATCATQRLAEFLRHSSNNLKPILPPTNVGSNT-trans-Hyp-NH2) [PD053]
5. {C20 diacid-AEEA-AEEA-Inp′}-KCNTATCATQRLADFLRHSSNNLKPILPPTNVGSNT[Hyp]-NH2 (disulfide 2-7 (inferred)) [PD180]

Result:
0.024
0.034
0.815
0.075
0.016

Could you report EC50, CRE-luciferase assay for every entry in the following list?
1. RCNTATCATQRLADFLRHSSNNK([AEEA-γGlu-C18 diacid])GPILPPTNVGSNT[Hyp]-NH2 (disulfide 2-7 (inferred)) [PD111]
2. RCNTATCATQRLADFLRHSK([AEEA-AEEA-γGlu-C18 diacid])NNLGPILPPTNVGSNT[Hyp]-NH2 (disulfide 2-7 (inferred)) [PD097]
3. RCNTATCATQRLADFLRHK([AEEA-γGlu-C20 diacid])SNNLGPILPPTNVGSNT[Hyp]-NH2 (disulfide 2-7 (inferred)) [PD118]

Result:
0.008
0.014
0.032
